Entries and their OD450 nm values follow.
Molecular target: monkey GPC3-His protein (monkey)
Assay: ELISA, monkey GPC3-His coated; antibody 66.66 nM
Form field (numeric): enter value without unit.

Reported OD450 nm for hAb007LH1L1 (antibody, human IgG1, V domains shown) VH: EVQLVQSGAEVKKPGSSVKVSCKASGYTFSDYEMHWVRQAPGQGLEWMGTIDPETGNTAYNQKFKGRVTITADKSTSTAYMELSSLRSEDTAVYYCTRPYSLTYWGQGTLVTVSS VL: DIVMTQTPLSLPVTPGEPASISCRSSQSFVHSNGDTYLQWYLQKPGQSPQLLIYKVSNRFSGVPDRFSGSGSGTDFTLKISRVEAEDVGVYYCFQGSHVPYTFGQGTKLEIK was 2.56

# next binder below
Reported OD450 nm for hAb003LH1L1 (antibody, human IgG1, V domains shown) VH: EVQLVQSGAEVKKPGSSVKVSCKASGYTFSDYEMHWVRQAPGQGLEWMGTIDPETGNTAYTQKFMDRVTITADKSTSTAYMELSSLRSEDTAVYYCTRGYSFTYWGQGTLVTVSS VL: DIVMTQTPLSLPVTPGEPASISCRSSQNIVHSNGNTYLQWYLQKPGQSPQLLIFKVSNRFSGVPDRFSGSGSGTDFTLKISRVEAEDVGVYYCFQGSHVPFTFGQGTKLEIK was 2.58
